# Tested on: PC-3 prostate
# procedureDetails: NCI tumour cell line growth inhibition, 48 h
outcomeMeasure: GI50

Entry `CCOC(=O)c1sc(=S)c2c(C(=O)c3ccccc3)c(C(=O)c3ccccc3)sc2c1C(=O)OCC` has what GI50?
3.61 µM

====

Quick reference: GI50 of the listed items.
# System: HS 578T breast
# procedureDetails: NCI tumour cell line growth inhibition, 48 h

Solved cases below.
compound="O=C1N=C2c3c(sc4c3CCCC4)N=CN2C1N=Nc1ccc(Cl)cc1 (stereo not given)" result="29.8 µM"
compound=COc1ccc(/C=C/C(=O)c2ccc(Nc3ncnc4ccccc34)cc2)cc1OC result="15.3 µM"
compound=Cc1c(C(=O)/C=C/c2ccc(O)cc2)nnn1-c1ccnc2c(C(F)(F)F)cccc12 result="60.7 µM"

Entry `Nc1nc(-n2cccn2)nc(-n2cccn2)c1Br` has what GI50?
> 100 µM

Entry COc1ccc(C2CC(=O)Nc3c2c(C)nn3-c2nc3ccccc3[nH]2)cc1 (stereo not given) has what GI50?
3.19 µM

Entry `S=C(Nc1ccccc1)c1ccccn1` has what GI50?
> 100 µM

Entry `C[C@]12CC[C@H]3[C@@H](CC=C4C[C@@H](O)CC[C@@]43C)[C@@H]1C/C(=C\c1cccc(OCCN3CCOCC3)c1)[C@@H]2O` has what GI50?
> 100 µM

Entry `N#C/C(=C\c1cn(-c2ccccc2)c2ccccc12)C(=O)O` has what GI50?
32.2 µM

Entry `N#Cc1nc(-c2cccc(Br)c2)cc(-c2ccc(Nc3nc(N4CCCCC4)nc(N4CCCCC4)n3)cc2)c1N` has what GI50?
2.1 µM

Entry `CC(C)(C)Cn1c(N)nc2ccc(-c3[nH]c(C(C)(C)C)nc3-c3ccc(F)cc3)nc21` has what GI50?
13.7 µM

====

# System: SK-MEL-28 melanoma
# procedureDetails: NCI tumour cell line growth inhibition, 48 h; in the data active = GI50 below about 0.43 µM; inactive = the rest
Answer with one of the outcomes given here: active, inactive

Examples with answers:
chemicalsmiles=CNC(=O)c1cc(Oc2ccc3nc(NC(=O)Nc4ccc(Cl)c(Cl)c4)sc3c2)ccn1 labelclass=inactive
chemicalsmiles=CC(=O)OCC(=O)[C@@]1(O)[C@H](C)C[C@H]2[C@@H]3C=C(C)C4=Cc5c(cnn5-c5ccc(F)cc5)C[C@]4(C)[C@H]3[C@@H](O)C[C@@]21C labelclass=inactive
chemicalsmiles=N#C/C(=C\c1cn(-c2ccccc2)c2ccccc12)C(=O)O labelclass=inactive
chemicalsmiles=N#Cc1nc(-c2cccc(Br)c2)cc(-c2ccc(Nc3nc(N4CCCCC4)nc(N4CCCCC4)n3)cc2)c1N labelclass=inactive
chemicalsmiles=CN(C)c1cccc2[nH]c(-c3[nH]ncc3Nc3ccnc(N)n3)nc12 labelclass=active
chemicalsmiles=C=C1C(=O)O[C@H]2[C@H]1CC/C(COC(=O)NCCc1ccc(OC)cc1)=C\CC[C@@]1(C)O[C@@H]21 labelclass=inactive
chemicalsmiles=C#Cc1cccc(NC(=O)Nc2ccc(NC(=O)CCl)cc2)c1 labelclass=inactive
chemicalsmiles=CCN(CC)c1ccc(/C=N/NC(=O)c2ccc(Nc3ccnc(C(F)(F)F)c3)cc2)c(O)c1 labelclass=active

API: the following record is the query input.
Which outcome did this test record for the compound `CCOC(=O)c1cc2c(cc1Cl)SC(N(c1ccc(F)cc1)S(=O)(=O)c1ccc(OC)cc1)=NS2(=O)=O` ?
inactive

====

# System: CCRF-CEM leukemia
# procedureDetails: NCI tumour cell line growth inhibition, 48 h
outcomeMeasure: TGI

Solved cases below.
compound="Cc1ccc(S(=O)(=O)N(c2ccccc2F)C2CCCCC2O)cc1 (centres undefined)" result="> 100 µM"
compound=Cc1[nH]c2ncn(/N=C/c3ccccc3)c(=N)c2c1Cc1ccccc1 result="> 100 µM"
compound=O=C(CNC(=O)c1cccc2ccccc12)Nc1ccccc1Oc1cccc(O)c1 result="> 25 µM"

// switching to the query compound
Identify the measured TGI of CCCOC(=O)c1cc(C(=CCC[C@H]2CC[C@@]3(C)[C@@H](CC[C@@H]4[C@@H]3CC[C@]3(C)[C@@H](C(C)CCCC(C)C)CC[C@@H]43)C2)c2cc(Cl)c(O)c(C(=O)OCCC)c2)cc(Cl)c1O (some centres undefined) for CCRF-CEM leukemia.
> 50 µM

====

# Test system: BT-549 breast
# procedureDetails: NCI tumour cell line growth inhibition, 48 h
outcomeMeasure: TGI (µM)
Number only, in µM; omit the unit.

Solved cases below.
chemicalsmiles=Cc1c(-c2ccccc2)c(-c2ccc(OCCN(C)C)cc2)n2ccccc12 recordednumber=18.7
chemicalsmiles=CCOC(=O)CCc1c(C(=O)OCC)[nH]c(/C=C2/NC(=O)C(C)=C2CC)c1C recordednumber=6.19

// switching to the query molecule
Identify the measured TGI of `N#C/C(=C\c1ccc(Cl)cc1)c1nc2ccccc2c(=O)[nH]1` for BT-549 breast.
69.2

====

# System: M14 melanoma
# procedureDetails: NCI tumour cell line growth inhibition, 48 h
outcomeMeasure: TGI

Solved cases below.
compound=Cn1c(=O)nc2n(CCO)c(-c3ccccc3)c(-c3ccccc3)nc-2c1=O outcomemeasure=TGI result="> 100 µM"
compound=N#C/C(=C\c1ccc(Cl)cc1)c1nc2ccccc2c(=O)[nH]1 outcomemeasure=TGI result="> 100 µM"
compound=O=C1/C(=C/c2cccc([N+](=O)[O-])c2)CCCc2ccccc21 outcomemeasure=TGI result="26.7 µM"
compound=CCOC(=O)CCc1c(C(=O)OCC)[nH]c(/C=C2/NC(=O)C(C)=C2CC)c1C outcomemeasure=TGI result="20.8 µM"
compound=Cc1nc2ccccc2nc1NS(=O)(=O)c1ccc(N)cc1 outcomemeasure=TGI result="> 100 µM"

Entry `C1=CCN(c2ccccc2)CC1` has what TGI?
44.8 µM

Entry `COc1ccc2oc(=N)c(C(N)=S)cc2c1` has what TGI?
> 100 µM

Entry O=C(CNC(=O)OCc1ccccc1)NCCCCC(NC(=O)OCc1ccccc1)C(=O)O (stereo unspecified) has what TGI?
> 100 µM

====

# Tested on: HL-60(TB) leukemia
# procedureDetails: NCI tumour cell line growth inhibition, 48 h; in the data active = GI50 below about 0.43 µM; inactive = the rest
*1 amine or outer side, *2 acyl side, *3 side chain or, on linkers, in order; H or OH if unused. Where a SMILES comes first, the peptide text is derived from it. Bridges are numbered along the chain shown (N, C = ends). [ ]: non-standard residue; d: D form. ξ: configuration not given here. X4 = CCC(C)C(N[*:1])C(O)CC(=O)O[C@H](C(=O)C(C)C(=O)[*:2])C(C)C; NMeY = CN[C@@H](Cc1ccc(O)cc1)C(=O)O; X9 = O=C([C@@H]1CC(O)CN1[*:1])[*:2]; ξNMeL = CNC(CC(C)C)C(=O)O; ξT = CC(O)C(N)C(=O)O
Answer with one of the outcomes given here: class 1 = active, class 0 = inactive

molecule=[N-]=[N+]=Nc1ncc(-c2ccc(C(F)(F)F)cc2)c(NC2CCCCCC2)n1 labelclass="class 0"
molecule=CCOC(=O)c1sc(=S)c2c(C(=O)c3ccccc3)c(C(=O)c3ccccc3)sc2c1C(=O)OCC labelclass="class 0"

Which outcome did this test record for the molecule `COc1ccc(NC2=C(Sc3nc(C)cc(C)n3)C(=O)N(Cc3ccccc3)C2=O)cc1Cl` ?
class 0

Which outcome did this test record for the molecule `S=C(Nc1ccccc1)c1ccccn1` ?
class 0

Which outcome did this test record for the molecule `COC(=O)c1c2c(c(C)[n+]([O-])c1C)C(=O)C=C(NCc1ccc(Cl)cc1)C2=O` ?
class 1

Which outcome did this test record for the molecule CCC(C)C1NC(=O)C(NC(=O)C(CC(C)C)N(C)C(=O)[C@@H]2CC(O)CN2)C(C)OC(=O)[C@H](Cc2ccc(OC)cc2)N(C)C(=O)[C@@H]2CCCN2C(=O)[C@H](CC(C)C)NC(=O)C(C)C(=O)[C@H](C(C)C)OC(=O)CC1O (some centres not stated) (H-[X9][ξNMeL][ξT][X4]LP[NMeY](Me); ester 3-C) ?
class 1

Which outcome did this test record for the molecule `COc1ccc(-c2ccc(/C=N/n3cn[nH]c3=S)o2)c([N+](=O)[O-])c1` ?
class 0

Which outcome did this test record for the molecule `Cc1c(C(=O)/C=C/c2ccc(O)cc2)nnn1-c1ccnc2c(C(F)(F)F)cccc12` ?
class 0

Which outcome did this test record for the molecule COc1cc(/C=C2\CCCC3=C2NC(N)=NC3c2cc(OC)c(OC)c(OC)c2)cc(OC)c1OC (configuration not stated) ?
class 0

Which outcome did this test record for the molecule `O=C(Nc1ccccc1Cl)c1cnc2ccc(C3CCNCC3)cn12` ?
class 0

Which outcome did this test record for the molecule `CNC(=O)c1cc(Oc2ccc3nc(NC(=O)Nc4ccc(Cl)c(Cl)c4)sc3c2)ccn1` ?
class 0

Which outcome did this test record for the molecule `CCN(CC)CCC(=O)Nc1cccc2c1C(=O)c1c(c(O)c3ccccc3c1O)C2=O` ?
class 0

====

# System: KM12 colon
# procedureDetails: NCI tumour cell line growth inhibition, 48 h
Quick reference: TGI of the listed items.

Solved cases below.
chemicalsmiles=Cc1ccc2sc3cc(=O)cc(C)c-3nc2c1 outcomemeasure=TGI result="> 100 µM"
chemicalsmiles=c1ccc(-c2nc(Nc3ccc(-c4nc5ccccc5[nH]4)cc3)nc(N3CCOCC3)n2)cc1 outcomemeasure=TGI result="3.19 µM"
chemicalsmiles=O=C(O)Cc1cc(=O)oc2cc(O)c(Cl)cc12 outcomemeasure=TGI result="> 100 µM"
chemicalsmiles=O=c1c2cc(Br)ccc2oc2ccc(Br)cc12 outcomemeasure=TGI result="> 100 µM"
chemicalsmiles=CC(C)=CC(=O)Cc1nc2ccccc2[nH]c1=O outcomemeasure=TGI result="> 100 µM"

Entry `C#Cc1cccc(NC(=O)Nc2ccc(NC(=O)CCl)cc2)c1` has what TGI?
63.8 µM

Entry `COC(=O)C1=CN(CC2=CC(=O)C(C)=CC2=O)C=C(C(=O)OC)C1c1cccc(OC)c1OC` has what TGI?
57.2 µM

Entry `O=[N+]([O-])c1ccc(Cc2nc3ccccc3s2)cc1` has what TGI?
> 100 µM
